Molecular target: T1, hPDGFRb.mmh (human, UniProt P09619 33-531)
T1 construct: Soluble monomeric construct; also called soluble human PDGFR-beta.mmh
T1 sequence (P09619 other isoform, or with tags, fused parts or gaps): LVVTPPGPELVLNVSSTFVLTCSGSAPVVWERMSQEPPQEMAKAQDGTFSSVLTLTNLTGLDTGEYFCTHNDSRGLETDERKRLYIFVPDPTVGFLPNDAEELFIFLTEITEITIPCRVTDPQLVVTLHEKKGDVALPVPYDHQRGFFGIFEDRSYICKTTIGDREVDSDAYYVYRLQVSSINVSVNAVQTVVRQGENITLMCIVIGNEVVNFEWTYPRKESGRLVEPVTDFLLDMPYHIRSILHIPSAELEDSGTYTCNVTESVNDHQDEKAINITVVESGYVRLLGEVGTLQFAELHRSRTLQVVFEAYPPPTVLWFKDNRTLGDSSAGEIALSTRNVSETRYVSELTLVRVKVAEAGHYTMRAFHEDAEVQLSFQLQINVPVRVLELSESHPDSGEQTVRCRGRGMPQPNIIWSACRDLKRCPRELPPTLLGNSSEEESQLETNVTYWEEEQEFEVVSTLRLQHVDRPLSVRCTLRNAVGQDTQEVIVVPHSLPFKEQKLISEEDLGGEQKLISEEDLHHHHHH
Test: SPR, mAb captured, 37 C
Rule: kon below 300000 M⁻¹ s⁻¹ gives T, anything at or above gives F.

Solved entries (count: 4):
1. H2M3373N (antibody, V domains shown, mouse Fc (H2M prefix; isotype not spelled out)) VH: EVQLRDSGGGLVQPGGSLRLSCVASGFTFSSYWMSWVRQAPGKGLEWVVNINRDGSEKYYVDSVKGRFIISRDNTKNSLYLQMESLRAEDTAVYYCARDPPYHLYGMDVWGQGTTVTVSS VL: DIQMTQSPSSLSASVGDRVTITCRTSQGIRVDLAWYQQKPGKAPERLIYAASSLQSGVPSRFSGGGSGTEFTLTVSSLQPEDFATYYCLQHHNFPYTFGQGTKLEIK = F
2. H2M3368N (antibody, V domains shown, mouse Fc (H2M prefix; isotype not spelled out)) VH: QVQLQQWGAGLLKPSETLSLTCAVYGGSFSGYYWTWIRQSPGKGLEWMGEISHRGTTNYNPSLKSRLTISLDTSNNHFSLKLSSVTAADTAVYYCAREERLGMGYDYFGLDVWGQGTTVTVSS VL: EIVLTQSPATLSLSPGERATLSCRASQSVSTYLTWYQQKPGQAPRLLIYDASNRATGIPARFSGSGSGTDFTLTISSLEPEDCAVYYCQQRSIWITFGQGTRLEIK = T
3. H4H3095S (antibody, human IgG4, V domains shown, human IgG4 Fc (H4H prefix)) VH: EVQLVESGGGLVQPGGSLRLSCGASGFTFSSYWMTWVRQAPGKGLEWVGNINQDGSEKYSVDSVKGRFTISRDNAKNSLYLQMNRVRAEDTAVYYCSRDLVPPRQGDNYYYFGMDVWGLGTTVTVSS VL: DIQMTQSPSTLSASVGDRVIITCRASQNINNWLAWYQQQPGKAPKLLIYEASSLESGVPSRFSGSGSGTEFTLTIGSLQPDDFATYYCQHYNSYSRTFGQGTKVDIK = F
4. H4H3105S (antibody, human IgG4, V domains shown, human IgG4 Fc (H4H prefix)) VH: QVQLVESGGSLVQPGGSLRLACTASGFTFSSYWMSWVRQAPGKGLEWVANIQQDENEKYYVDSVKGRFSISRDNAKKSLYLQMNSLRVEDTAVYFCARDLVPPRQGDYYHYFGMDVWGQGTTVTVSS VL: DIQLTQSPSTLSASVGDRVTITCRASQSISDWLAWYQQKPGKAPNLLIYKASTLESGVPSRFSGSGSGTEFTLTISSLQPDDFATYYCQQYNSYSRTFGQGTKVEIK = F

kon under 300000 M⁻¹ s⁻¹? Item: H4H3098S (antibody, human IgG4, V domains shown, human IgG4 Fc (H4H prefix)) VH: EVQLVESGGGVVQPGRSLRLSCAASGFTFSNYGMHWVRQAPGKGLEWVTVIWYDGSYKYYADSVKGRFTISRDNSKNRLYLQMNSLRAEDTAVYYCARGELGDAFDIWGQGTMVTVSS VL: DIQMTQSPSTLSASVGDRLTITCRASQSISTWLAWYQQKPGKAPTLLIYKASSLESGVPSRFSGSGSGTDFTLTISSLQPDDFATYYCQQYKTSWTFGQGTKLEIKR
F

kon under 300000 M⁻¹ s⁻¹? Item: H4H3094P (antibody, human IgG4, V domains shown, also called H4H3394P) VH: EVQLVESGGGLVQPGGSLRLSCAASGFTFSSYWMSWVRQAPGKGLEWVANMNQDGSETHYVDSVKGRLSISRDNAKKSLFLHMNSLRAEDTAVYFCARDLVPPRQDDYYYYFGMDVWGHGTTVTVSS VL: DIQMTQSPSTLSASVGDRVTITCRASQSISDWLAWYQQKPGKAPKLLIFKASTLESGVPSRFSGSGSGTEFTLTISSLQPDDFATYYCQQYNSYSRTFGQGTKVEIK
T

kon under 300000 M⁻¹ s⁻¹? Item: H4H3104S (antibody, human IgG4, V domains shown, human IgG4 Fc (H4H prefix)) VH: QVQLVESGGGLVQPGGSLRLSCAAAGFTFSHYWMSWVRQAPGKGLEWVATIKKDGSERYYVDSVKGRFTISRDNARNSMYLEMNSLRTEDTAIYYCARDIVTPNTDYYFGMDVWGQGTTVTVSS VL: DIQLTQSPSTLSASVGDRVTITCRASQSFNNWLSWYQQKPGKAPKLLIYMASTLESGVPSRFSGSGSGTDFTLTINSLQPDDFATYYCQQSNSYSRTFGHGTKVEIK
F

kon under 300000 M⁻¹ s⁻¹? Item: H4H3106S (antibody, human IgG4, V domains shown, human IgG4 Fc (H4H prefix)) VH: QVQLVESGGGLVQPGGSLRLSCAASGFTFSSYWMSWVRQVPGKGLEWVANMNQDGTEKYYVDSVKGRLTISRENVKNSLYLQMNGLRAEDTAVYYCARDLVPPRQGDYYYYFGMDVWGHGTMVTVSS VL: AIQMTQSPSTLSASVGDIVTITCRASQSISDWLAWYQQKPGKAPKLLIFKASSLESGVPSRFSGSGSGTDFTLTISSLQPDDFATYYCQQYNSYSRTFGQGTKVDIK
F

kon under 300000 M⁻¹ s⁻¹? Item: H4H3102S (antibody, human IgG4, V domains shown, human IgG4 Fc (H4H prefix)) VH: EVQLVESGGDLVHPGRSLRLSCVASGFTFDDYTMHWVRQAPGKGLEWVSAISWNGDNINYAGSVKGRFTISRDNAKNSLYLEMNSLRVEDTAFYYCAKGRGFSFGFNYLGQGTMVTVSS VL: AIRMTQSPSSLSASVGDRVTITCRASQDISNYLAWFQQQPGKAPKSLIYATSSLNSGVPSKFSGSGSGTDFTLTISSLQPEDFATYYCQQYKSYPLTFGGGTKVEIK
F

Data provenance is patent US20170210813A1.
